Target: PD-L1 expressed on MDA-MB-231 cells (UniProt Q9NZQ7 19-290, limits assumed)
Sequence (Q9NZQ7 19-290 limits assumed): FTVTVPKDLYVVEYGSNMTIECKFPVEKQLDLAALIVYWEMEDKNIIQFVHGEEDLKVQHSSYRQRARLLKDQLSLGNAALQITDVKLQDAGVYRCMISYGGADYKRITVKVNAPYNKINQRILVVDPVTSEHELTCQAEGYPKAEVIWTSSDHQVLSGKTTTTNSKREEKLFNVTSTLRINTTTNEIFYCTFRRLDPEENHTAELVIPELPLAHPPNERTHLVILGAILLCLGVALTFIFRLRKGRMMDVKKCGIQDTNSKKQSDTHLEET
Assay: cell-based or functional assay
Bridges are numbered along the chain shown (N, C = ends). Where no end group is shown, it is not given here. [ ]: non-standard residue; d: D form. Ahx = NCCCCCC(=O)O
# Fold induction listing for each entry below
Enter your answer as a number in fold; do not include the unit.

Req: // Input: cyclo([Ahx]SETSKSFQ) [Compound 17] . Output its Fold induction only.
Resp: 3.2

Req: // Input: IEMSKVQ-OH (lactam 2-5) [Compound 12] . Output its Fold induction only.
Resp: 3

Req: // Input: SETSKSFQ (not fully specified; also: cyclic, bridge and C-terminus not given here) [Compound 16] . Output its Fold induction only.
Resp: 2.8

Req: // Input: SETSKSFE (not fully specified; also: cyclic, bridge and C-terminus not given here) [Compound 20] . Output its Fold induction only.
Resp: 2.8

Req: // Input: EETSKSF (not fully specified; also: cyclic, bridge and C-terminus not given here) [Compound 4] . Output its Fold induction only.
Resp: 2.8

Provenance of the data: patent US20150125491A1
